- System: DeltatarO mutant
- Protocol summary: S. aureus survival, RN4220 and DeltatarO strains – OD600, teichoic acid synthesis inhibitors, primary screen (AID 463173)
- Test conditions: S. aureus RN4220 wild type/DeltatarO growth, OD600, 18 h, screened at 18.75 µg/mL (by protocol)
Screen size: about 52,000 compounds; about 4,300 (8.3%) were called active. Cut-off read from the data, not from the text of the source: active = survival mostly below about 52% (no sharp cut-off); inactive = mostly above about 56%. The list comes from a sample in which actives are over-represented; it also holds close analogues and randomly drawn compounds.
Lab note: assign the record to one of TRUE for active, FALSE for inactive

Below are worked cases with known answers.
>  <Molecule>
COc1ccc(-n2c(=O)c3ccc(C(=O)NCc4ccc(C)cc4)cc3n(Cc3ccc(F)cc3Cl)c2=O)cc1

>  <Label value>
FALSE

$$$$
>  <Molecule>
CCC(C)NC(=O)c1ccc2c(c1)N(Cc1ccccc1F)C(=O)c1ccccc1S2=O (stereo not drawn)

>  <Label value>
FALSE

$$$$
>  <Molecule>
CCOC(=O)c1ccc(NC(=O)c2sc3ccccc3c2Cl)cc1

>  <Label value>
FALSE

$$$$
>  <Molecule>
O=C(CN1CCN(c2ccccn2)CC1)N(c1ccccc1)c1ccc2ccccc2c1

>  <Label value>
FALSE

$$$$
>  <Molecule>
CC(C)c1ccc(N2C(=O)CS(=O)(=O)C23C(=O)N(Cc2cccc(F)c2)c2ccccc23)cc1 (stereo not drawn)

>  <Label value>
FALSE

$$$$

In: Tell me the recorded outcome of this test for CCOC(=O)c1c(NC(=O)COc2ccccc2Br)sc2c1CCCCC2 .
Out: TRUE

In: Tell me the recorded outcome of this test for CCSc1ncc(Cl)c(C(=O)Nc2c(C(=O)Nc3ccc(Cl)cc3)oc3ccccc23)n1 .
Out: FALSE

In: Tell me the recorded outcome of this test for Cc1cccc(NC(=O)c2sc3cccc(Cl)c3c2Cl)c1 .
Out: TRUE

In: Tell me the recorded outcome of this test for CCOC(=O)c1c(NC(=O)COc2cccc(C)c2C)sc2c1CCCCC2 .
Out: FALSE

In: Tell me the recorded outcome of this test for CC(=O)N(Cc1cccnc1)Cc1cc2cc3c(cc2[nH]c1=O)OCCO3 .
Out: FALSE

In: Tell me the recorded outcome of this test for COc1ccccc1N1CCN(c2nc(-c3ccc(C)cc3)nc3ccccc23)CC1 .
Out: FALSE

In: Tell me the recorded outcome of this test for COc1ccc(S(=O)(=O)Nc2cccc(-c3ccc(N4CCCCCC4)nn3)c2)c(OC)c1 .
Out: FALSE

###

- Test system: DeltatarO mutant
- Protocol summary: S. aureus survival, RN4220 and DeltatarO strains – OD600, teichoic acid synthesis inhibitors, primary screen (AID 463173)
- Test conditions: S. aureus RN4220 wild type/DeltatarO growth, OD600, 18 h, screened at 18.75 µg/mL (by protocol)
The campaign covered roughly 52,000 compounds. About 4,300 (8.3%) were called active. Cut-off read from the data, not from the text of the source: active = survival mostly below about 52% (no sharp cut-off); inactive = mostly above about 56%. Shown is part of a subset that was picked to be rich in actives.
Lab note: assign the record to one of active, inactive

>  <Compound>
COc1ccc(CNC(=O)C2CCN(c3nc4ccccc4[nH]3)CC2)cc1OC

>  <Label value>
inactive

$$$$

Now look at this one.
In: Tell me the recorded outcome of this test for CN(C)c1ccc(CNC(=O)C2CCN(c3nc4ccccc4[nH]3)CC2)cc1 .
Out: inactive

###

- System: DeltatarO mutant
- Protocol summary: S. aureus survival, RN4220 and DeltatarO strains – OD600, teichoic acid synthesis inhibitors, primary screen (AID 463173)
- Test conditions: S. aureus RN4220 wild type/DeltatarO growth, OD600, 18 h, active compounds read low, screened at 18.75 µg/mL (by protocol)
The whole screen tested about 52,000 compounds, of which about 4,300 (8.3%) were called active. Shown is part of a subset that was picked to be rich in actives.
Measure: survival

In: Please report the recorded survival for CCOc1ccccc1CC1C(=O)Nc2ccc(Br)cc21 (stereo not given) .
Out: 59% (inactive)

In: Please report the recorded survival for CCOc1ccc(N(C)C(CNS(=O)(=O)c2ccccc2)c2ccccc2)cc1 (stereo not given) .
Out: 87% (inactive)

In: Please report the recorded survival for CCc1cccc(CC)c1NS(=O)(=O)c1ccc2c(c1)CCN2C(=O)C1CC1 .
Out: 90% (inactive)

In: Please report the recorded survival for COc1ccc(NC(=O)c2ccc3c(=O)n4nc(Nc5cccc(Cl)c5C)sc4nc3c2)cc1 .
Out: 67% (inactive)

In: Please report the recorded survival for CC(C)(C)c1ccc(C(=O)N2CCN(CCc3ccccn3)CC2)cc1 .
Out: 45% (inactive)

Hey, just so you know, these numbers are from PubChem BioAssay AID463173.
